Tested Target: T1, SARS-CoV-2 ORF8 protein (SARS-CoV-2, UniProt P0DTC8 16-121)
T1 construct: domain: Ig-like domains; also called open reading frame 8
T1 sequence (P0DTC8 16-121, tags left off): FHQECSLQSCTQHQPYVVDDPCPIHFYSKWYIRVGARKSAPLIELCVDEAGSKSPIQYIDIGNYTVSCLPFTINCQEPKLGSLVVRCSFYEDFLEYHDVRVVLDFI
Test Summary: mAb table, Specificity column (recombinant IgG1; ELISA)
Test Readout: binding result

Binder	Observed
S144-843 (antibody, V domains shown, recombinant human IgG1) VH: QVQLVESGGGVVQPGGSVRLSCAASGFDFTNNGMYWVRQAPGKGLEWVAFIRYDGNKQDYADSVKGRFTISRDNSKNTLYLQMSSLRPEDTAVYYCAKGVYTENYGWGQGTLVTVSS VL: EIVLTQSPGTLSLSPGERATLSCRASQTVTSRYLAWYQQKPGQAPRLLIYGASTRATGIPDRFSGSGSGTDFTLTISRLEPEDFAVYYCQQYGNSPPYTFGQGTKLEIK	binds
S144-175 (antibody, V domains shown, recombinant human IgG1) VH: QVQLVQSGAEVKKPGASVKVSCKASGYTFTGYYMHWVRQAPGQGLEWMGRINPNSGGTNFAQRFQGRVSMTRDTSISTAYMELSSLRSDDTAVYYCARGAKFEHLPFDIWGQGTMVTVSS VL: QSMLTQPPSASGTPGQRVTISCSGSSSNIGSNYVYWYQQLPGTAPKLLIYRNNQRPSGVPDRFSGSKSGTSASLAISGLRSEDEADYYCAAWDDRRWVFGGGTKLTVL	binds
